Molecular target: T1, Recombinant MBP-mutCALR Type 1 fusion protein (human)
T1 construct: custom made at Cepter; also called recombinant mutCALR protein
Experiment: SPR, IgG captured, 1:1 fit, Exp. 1
Attribute: kon
Express the result in M⁻¹ s⁻¹ but write the number alone.

INSERT INTO results (binder, endpoint_name, measured_value) VALUES
  ('anti-mutCALR antibody clone 27 (antibody, human IgG1, lambda, V domains shown, human IgG1) VH: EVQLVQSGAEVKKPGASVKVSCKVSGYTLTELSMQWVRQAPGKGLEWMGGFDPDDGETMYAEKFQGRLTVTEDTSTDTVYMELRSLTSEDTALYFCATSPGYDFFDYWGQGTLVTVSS VL: SYVLTQPPSVSVAPGQTARITCGGNNIGIKSVHWYQQKPGQAPVLVVYDDRDRPSGIPERFSGSNSGNTATLTINRVEAGDEADYYCQVWDSSNDLLIFGGGTKLTVLG', 'kon', 380000),
  ('anti-mutCALR antibody clone 20 (antibody, human IgG1, lambda, V domains shown, human IgG1) VH: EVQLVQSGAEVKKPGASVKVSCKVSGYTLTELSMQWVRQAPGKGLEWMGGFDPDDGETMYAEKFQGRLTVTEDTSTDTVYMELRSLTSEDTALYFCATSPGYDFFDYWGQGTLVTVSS VL: SYVLTQPPSVSVAPGKTARITCGGNNIGSKGVHWYQQKPGQAPVLVVYDDSDRPSGIPERFSGSNSGNTATLTINRVEAGDEADYYCQVWDSSNDLLIFGGGTKLTVLG', 'kon', '1.12e+06');

In the following, a different binder is considered.
Name the recorded kon of the binder listed here: anti-mutCALR antibody clone 35 (antibody, human IgG1, lambda, V domains shown, human IgG1) VH: QVQLVQSGAEVKKPGATVKISCKVSGYSFTDYFIHWVQQAPGKGLAWVGLVDPEDGETIYAERFQGRVTITADTSTDTAYMELSSLRSEDTAVYYCATPGGILTDPDAFDIWGQGTMVTVSS VL: QSALTQPASVSGSPGQSITISCTGTSSDVGGYNYVSWYQQHPGKAPKLMIYEVSNRPSGVSNRFSGSKSGNTASLTISGLQAEDEADYYCSSYTSSSTPYVFGTGTKVTVLG 2.13e+06

The origin of these recorded values is patent US20230272055A1.
